Tested on: Fusarium sp. 3
Assay: microbe, parasite or virus in culture
Type: cell-based
Settings: Tricide 540 ug/ml
Experimental readout: MIC 50 combined with Tricide (µg/mL)
Report the value in µg/mL with no unit label.

A selection of reference data follows.
CC(=O)N1CCN(c2ccc(OCC3COC(Cn4ccnc4)(c4ccc(Cl)cc4Cl)O3)cc2)CC1 (stereo not shown) | 0
CCC(C)n1ncn(-c2ccc(N3CCN(c4ccc(OCC5COC(Cn6cncn6)(c6ccc(Cl)cc6Cl)O5)cc4)CC3)cc2)c1=O (stereo not shown) | 0
Clc1ccc(COC(Cn2ccnc2)c2ccc(Cl)cc2Cl)c(Cl)c1 (stereo not shown) | 0

Kindly consider the entry below.
Answer with the recorded MIC 50 combined with Tricide for the compound listed here: "C[C@@H]1C/C=C/C=C/C=C/C=C/[C@H](O[C@@H]2O[C@H](C)[C@@H](O)[C@H](N)[C@@H]2O)C[C@@H]2O[C@](O)(C[C@@H](O)C[C@H]3O[C@@H]3/C=C/C(=O)O1)C[C@H](O)[C@H]2C(=O)O"
0

All figures here come from patent US20100298252A1.
